All values here come from ChEMBL document CHEMBL4321837.

# test.target: Tyrosine-protein kinase JAK3 (Homo sapiens)
# experiment.description: Inhibition of human JAK3 (781 to end residues) assessed as residual activity at 100 nM using GGEEEEYFELVKK as substrate after 40 mins in presence of [gamma33P]-ATP by scintillation counting based radiometric assay relative to control
Activity values, listed per item

| structure.smiles.string | Activity / % |
| --- | --- |
| Cc1cnc(Nc2ccc(N3CCC(N(C)CC4CC4)CC3)c(F)c2)nc1-c1cnn(C(C)C)c1 | 31 |
| Cc1cnc(Nc2ccc(N3CCC(N(C)C)CC3)c(F)c2)nc1-c1cnn(C(C)C)c1 | 23 |
| CC(C)n1cc(-c2nc(Nc3ccc(N4CCC(N5CCCCC5)CC4)c(F)c3)ncc2F)cn1 | 47 |
| CCCn1cc(-c2nc(Nc3ccc(N4CCN(C)CC4)c(F)c3)ncc2F)cn1 | 69 |
| Cc1cnc(Nc2ccc(N3CCC(N(C)CCCO)CC3)c(F)c2)nc1-c1cnn(C(C)C)c1 | 31 |
| CCCN(CCN1CCOCC1)C1CCN(c2ccc(Nc3ncc(C)c(-c4cnn(C(C)C)c4)n3)cc2F)CC1 | 9 |
| Cc1cnc(Nc2ccc(N3CCC(N(C)CCN4CCOCC4)CC3)c(F)c2)nc1-c1cnn(C(C)C)c1 | 37 |
| CCN(CCN1CCOCC1)C1CCN(c2ccc(Nc3ncc(C)c(-c4cnn(C(C)C)c4)n3)cc2F)CC1 | 33 |
| Cc1cnc(Nc2ccc(N3CCN(C)CC3)c(F)c2)nc1-c1cnn(C(C)C)c1 | 40 |

###

# test.target: UniProt P11712
# Sequence (P11712 whole entry): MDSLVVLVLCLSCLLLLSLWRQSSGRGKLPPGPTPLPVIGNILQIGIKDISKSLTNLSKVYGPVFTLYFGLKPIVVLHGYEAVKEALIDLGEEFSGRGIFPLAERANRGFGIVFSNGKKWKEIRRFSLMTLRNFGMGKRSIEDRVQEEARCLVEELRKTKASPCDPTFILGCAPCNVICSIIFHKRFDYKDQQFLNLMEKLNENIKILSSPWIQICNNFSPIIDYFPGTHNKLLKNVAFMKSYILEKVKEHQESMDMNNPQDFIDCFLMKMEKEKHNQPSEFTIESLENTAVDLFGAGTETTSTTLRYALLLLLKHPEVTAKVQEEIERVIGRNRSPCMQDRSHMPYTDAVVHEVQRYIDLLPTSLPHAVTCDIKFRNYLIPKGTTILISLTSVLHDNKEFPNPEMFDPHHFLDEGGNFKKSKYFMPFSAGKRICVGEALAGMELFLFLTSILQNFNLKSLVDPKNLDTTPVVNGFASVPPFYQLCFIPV
# experiment.description: Inhibition of CYP2C9 (unknown origin)
# Format: ADME
value.type: IC50 (µM)

| structure.smiles.string | test.target | value.type | test.result |
| --- | --- | --- | --- |
| Cc1cnc(Nc2ccc(N3CCC(N(C)CCO)CC3)c(F)c2)nc1-c1cnn(C(C)C)c1 | UniProt P11712 | IC50 | 78.1 |

###

# experiment.description: Toxicity in NOD/SCID mouse xenografted with FLT3-ITD-positive human MV4-11 cells assessed as animal survival at 30 to 60 mg/kg, po qd for 14 days
# Format: organism-based
# setup.conditions: in vivo

| structure.smiles.string | unit.of.measure | survival at 336 h |
| --- | --- | --- |
| Cc1cnc(Nc2ccc(N3CCC(N(C)CCO)CC3)c(F)c2)nc1-c1cnn(C(C)C)c1 | % | 100 |

###

# test.target: Receptor-type tyrosine-protein kinase FLT3 (Homo sapiens, UniProt P36888)
# Sequence (P36888 whole entry): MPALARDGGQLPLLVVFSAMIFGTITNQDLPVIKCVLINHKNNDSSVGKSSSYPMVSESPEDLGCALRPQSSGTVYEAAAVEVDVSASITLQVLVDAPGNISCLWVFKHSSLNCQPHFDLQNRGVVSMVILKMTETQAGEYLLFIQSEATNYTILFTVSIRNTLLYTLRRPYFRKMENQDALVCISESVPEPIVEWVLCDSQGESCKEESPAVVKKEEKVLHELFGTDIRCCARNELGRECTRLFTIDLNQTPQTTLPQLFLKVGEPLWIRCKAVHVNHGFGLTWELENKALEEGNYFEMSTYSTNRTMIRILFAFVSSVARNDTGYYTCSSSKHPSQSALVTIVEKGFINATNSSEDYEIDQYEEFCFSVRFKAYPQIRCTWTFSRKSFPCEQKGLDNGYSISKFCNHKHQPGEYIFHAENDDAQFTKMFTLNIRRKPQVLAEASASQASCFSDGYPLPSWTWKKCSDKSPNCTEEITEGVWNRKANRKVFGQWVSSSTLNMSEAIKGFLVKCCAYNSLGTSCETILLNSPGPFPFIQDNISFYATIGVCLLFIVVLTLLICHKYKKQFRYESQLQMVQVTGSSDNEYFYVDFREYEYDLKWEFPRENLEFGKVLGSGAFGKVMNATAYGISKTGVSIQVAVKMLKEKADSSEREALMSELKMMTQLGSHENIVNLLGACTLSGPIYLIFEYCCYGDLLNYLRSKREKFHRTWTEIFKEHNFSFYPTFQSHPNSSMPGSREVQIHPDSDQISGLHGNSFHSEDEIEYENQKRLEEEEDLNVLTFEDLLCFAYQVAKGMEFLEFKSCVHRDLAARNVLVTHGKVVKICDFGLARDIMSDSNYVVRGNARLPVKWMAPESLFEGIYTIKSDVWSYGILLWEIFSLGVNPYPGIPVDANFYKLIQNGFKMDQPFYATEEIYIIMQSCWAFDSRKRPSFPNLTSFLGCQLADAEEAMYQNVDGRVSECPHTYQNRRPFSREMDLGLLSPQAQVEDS
pIC50: −log10 of the molar value.

| structure.smiles.string | pIC50 |
| --- | --- |
| Cc1cnc(Nc2ccc(N3CCC(N(C)CCCO)CC3)c(F)c2)nc1-c1cnn(C(C)C)c1 | 8.05 |

###

# test.target: Tyrosine-protein kinase JAK3 (Homo sapiens)
# experiment.description: Inhibition of human JAK3 (781 to end residues) assessed as residual activity at 100 nM using GGEEEEYFELVKK as substrate after 40 mins in presence of [gamma33P]-ATP by scintillation counting based radiometric assay relative to control

| structure.smiles.string | Activity |
| --- | --- |
| CCCN(C)C1CCN(c2ccc(Nc3ncc(C)c(-c4cnn(C(C)C)c4)n3)cc2F)CC1 | 9% |
| CCCCN1CCC(n2cc(-c3nc(Nc4ccc(N5CCN(C)CC5)c(F)c4)ncc3F)cn2)CC1 | 32% |
| CCCCCCN(C)C1CCN(c2ccc(Nc3ncc(C)c(-c4cnn(C(C)C)c4)n3)cc2F)CC1 | 44% |
| CCN1CCN(c2ccc(Nc3ncc(F)c(-c4cnn(C5CCCC5)c4)n3)cc2F)CC1 | 68% |
| CC(C)n1cc(-c2nc(Nc3ccc(N4CCC(N(C)C)CC4)c(F)c3)ncc2F)cn1 | 48% |
| Cc1cnc(Nc2ccc(N3CCC(N(C)CCN4CCN(C)CC4)CC3)c(F)c2)nc1-c1cnn(C(C)C)c1 | 44% |
| CCN1CCN(c2ccc(Nc3ncc(F)c(-c4cnn(C(C)C)c4)n3)cc2F)CC1 | 66% |
